Below, IC50 values reported for human mPGES-1 (Homo sapiens) across several publications.
Numbers only, in nM.

// worked examples, IC50 included
NS(=O)(=O)c1ccccc1NS(=O)(=O)/C=C/c1ccccc1OC(F)(F)F	420
COCc1nc2c(C(=O)Nc3cccc(C#N)c3C)cc(NC(=O)c3ccccc3C(F)(F)F)cc2[nH]1	52.5
C[C@H](Oc1ccc(-c2nc(O)nc(-c3cc(CNC(=O)C(C)(C)C(F)(F)F)ccc3Cl)n2)cc1)C1CC1	1.9
CCOC(=O)c1ccc(-c2ccc(C(=O)NS(=O)(=O)c3ccccc3S(N)(=O)=O)o2)cc1	5400
CC(C)C#Cc1ccc(CCS(=O)(=O)Nc2ccccc2S(N)(=O)=O)c(OCC2CCOCC2)c1	3.4

// each listed molecule needs a value for IC50
1. CC(C)Nc1ccc(-n2c(C(=O)O)c(-c3ccc(OC(C)C)cc3)c3cc(-c4ccc(C(C)(C)C)cc4)ccc32)cc1
2. CO[C@](C)(C(=O)NC(C)c1ccc(Cl)c(-c2nc(O)nc(-c3ccc(OCC(C)(C)C)cc3)n2)c1)C(F)(F)F (single isomer, unassigned)
3. COc1cc(C(=O)NS(=O)(=O)c2ccccc2S(N)(=O)=O)ccc1C#Cc1ccccc1C

Response:
1: 70; 2: 306; 3: 11

Query: Determine its reported IC50: `Cc1ccc(-c2nc(O)nc(-c3cc(CNC(=O)C(C)(C)C(F)(F)F)ccc3Cl)n2)cc1Cl`
Response: 0.6

###

Compiled from multiple publications: IC50 readings for human mPGES-1 (Homo sapiens).
Numbers only, in µM.

NS(=O)(=O)c1ccc(F)cc1NS(=O)(=O)/C=C/c1ccc(-c2ccco2)cc1	0.12
CCC[C@@H](C)Oc1ccc(-c2nc(O)nc(-c3cc(CNC(=O)C(C)(C)C(F)(F)F)ccc3Cl)n2)cc1	0.0041
Cc1ccc(Cl)cc1-c1nc(O)nc(-c2ccc(C(F)(F)F)cc2)n1	0.164

Report IC50 for each item below.
1. NS(=O)(=O)c1ccccc1S(=O)(=O)NC(=O)c1ccc2oc(C3CC3)cc2c1
2. CCn1c(-c2ccc(Cl)cc2)cc2cc(NC(=O)c3cc(CNC(=O)C4(C)CC4)cnc3C(F)F)ccc21
3. NS(=O)(=O)c1ccccc1NS(=O)(=O)c1cccc(-c2ccc(F)cc2F)c1
4. CC(C)C#Cc1ccc(C(=O)NS(=O)(=O)c2ccccc2S(N)(=O)=O)cc1OCC1CC1

Response:
[0.26, 0.00721, 1.1, 0.034]

Fill in IC50 for each of the 4 molecules listed.
1. CC(C)(C)COc1ccc(-c2nc(O)nc(-c3cc(CC(C)(C)O)ccc3Cl)n2)cc1
2. CC(C)Oc1ccc(-n2c(C(=O)O)c(C(=O)O)c3cc(Oc4ccc(C(F)(F)F)cn4)ccc32)cc1
3. NS(=O)(=O)c1c(F)cccc1NS(=O)(=O)/C=C/c1ccc(-c2cc3ccccc3o2)cc1
4. CC(C)c1ccc(-c2nc(O)nc(-c3cc(CNC(=O)C(C)(C)C)ccc3Cl)n2)cc1

Response:
1. 0.024
2. 4.3
3. 0.074
4. 0.0007
